assay: Metabolic stability in human liver microsomes assessed as half life measured up to 60 mins by LC-MS/MS analysis; format: ADME, Microsome
MEASUREMENT TYPE: half-life (h)
Write it as a number; the unit h goes unstated.

smiles_data=O=C1c2c(O)c(=O)ccn2N([C@H](c2ccc(F)c(F)c2)c2cccs2)[C@@H]2COCCN12 unit_string=h quantitative_readout=4.45

I'd like to know its half-life. The molecule in question is `O=C1c2c(O)c(=O)ccn2N([C@@H](c2ccc(F)cc2)c2cccs2)[C@@H]2COCCN12`
12.8

Field request: half-life | item: `O=C1c2c(O)c(=O)ccn2N([C@@H](c2ccc(F)c(F)c2)c2cccs2)[C@@H]2COCCN12`
12.8

====

assay: MRT (0 to infinity) in CD-1 mouse at 1 mg/kg, iv measured up to 24 hrs by LC-MS/MS analysis; assay type: ADME, organism-based; conditions: in vivo
MEASUREMENT TYPE: MRT inf (h)
Numbers only here, please. The scale is h.

Any idea what MRT inf was measured for `O=C1c2c(O)c(=O)ccn2N([C@@H](c2ccc(F)c(F)c2)c2cccs2)[C@@H]2COCCN12` ?
2.98

====

assay: Selectivity index, ratio of CC50 for dog MDCK cells to EC50 for antiviral activity against influenza strain A/Aichi/ 2/1968 (H3N2) infected in MDCK cells; format: toxicity, cell-based; settings: read-out: Selectivity Index
Item-by-item account of selectivity ratio
// no unit, no text: just the number

Answered examples (6):
compound=Cc1ccc([C@H](c2cccs2)N2[C@@H]3COCCN3C(=O)c3c(O)c(=O)ccn32)cc1C quantitative_readout=2530
compound=O=C1c2c(O)c(=O)ccn2N([C@@H](c2ccc(F)c(F)c2)c2ccc(-c3ccccc3)s2)[C@@H]2COCCN12 quantitative_readout=3580
compound=O=C1c2c(O)c(=O)ccn2N([C@H](c2ccc(F)c(F)c2)c2ccc(-c3ccccc3)s2)[C@@H]2COCCN12 quantitative_readout=12900
compound=O=C1c2c(O)c(=O)ccn2N([C@H](c2cc(F)c(F)c(F)c2)c2cccs2)[C@@H]2COCCN12 quantitative_readout=1190
compound=Cc1ccc([C@@H](c2cccs2)N2[C@@H]3COCCN3C(=O)c3c(O)c(=O)ccn32)cc1C quantitative_readout=15600
compound=O=C1c2c(O)c(=O)ccn2N([C@@H](c2ccc(F)c(F)c2)c2cccs2)[C@@H]2COCCN12 quantitative_readout=7180

Recorded selectivity ratio of `O=C1c2c(O)c(=O)ccn2N([C@@H](c2ccc3ccccc3c2)c2cccs2)[C@@H]2COCCN12` , please.
758

Given O=C1c2c(O)c(=O)ccn2N([C@@H]2c3ccccc3SCc3c2ccc(F)c3F)[C@@H]2COCCN12 [BALOXAVIR] , state its recorded selectivity ratio.
2440

# selectivity ratio lookup, item `O=C1c2c(O)c(=O)ccn2N([C@@H](c2ccc(F)cc2)c2cccs2)[C@@H]2COCCN12`
22800

Endpoint output: selectivity ratio of `O=C1c2c(O)c(=O)ccn2N([C@H](c2ccc(F)c(F)c2)c2ccc(Cl)s2)[C@@H]2COCCN12` . Value?
783

Bench note: what selectivity ratio did `O=C1c2c(O)c(=O)ccn2N([C@H](c2ccc(Cl)c(Cl)c2)c2cccs2)[C@@H]2COCCN12` show?
931

====

tested on: Influenza A virus; assay: Antiviral activity against influenza strain A/Aichi/ 2/1968 (H3N2) infected in MDCK cells assessed as reduction of virus-induced cytopathic effect measured after 2 days incubation; format: functional, organism-based; settings: 48 h
MEASUREMENT TYPE: pEC50
As a rule, pEC50 stands for the negative log10 of the concentration, concentration in M.

Example cases with answers are listed next.
smiles_data=Cc1ccc([C@H](c2cccs2)N2[C@@H]3COCCN3C(=O)c3c(O)c(=O)ccn32)cc1C measurement_type=pEC50 quantitative_readout=8.09
smiles_data=O=C1c2c(O)c(=O)ccn2N([C@H](c2ccc(F)c(F)c2)c2ccc(Br)s2)[C@@H]2COCCN12 measurement_type=pEC50 quantitative_readout=7.55
smiles_data=O=C1c2c(O)c(=O)ccn2N([C@H](c2ccc(F)c(F)c2)c2cccs2)[C@@H]2COCCN12 measurement_type=pEC50 quantitative_readout=8.51

Shift focus to the following entry.
Which pEC50 is listed for `O=C1c2c(O)c(=O)ccn2N([C@@H](c2ccc(F)c(F)c2)c2cccs2)[C@@H]2COCCN12` ?
8.32
